# system: human recombinant ETB receptors (Homo sapiens)
# test name: Inhibition of [125I]ET-1 binding to membranes from CHO cells carrying human ETB receptors; further: 2.5% DMSO
pIC50: −log10 of the molar value.
In this section, each of the molecules is paired with its reported pIC50.
quantity name: pIC50

- CCCS(=O)(=O)Nc1ncnc(OCCOc2ncc(S(C)(=O)=O)cn2)c1-c1ccc(Br)cc1: 6.56
- CCCCS(=O)(=O)Nc1nc(-c2ncccn2)nc(OCCOc2ncc(SC)cn2)c1Oc1ccccc1OC: 6.82
- COc1ccccc1Oc1c(NS(C)(=O)=O)ncnc1OCCOc1ncc(SC)cn1: 6.81
- CCCS(=O)(=O)Nc1nc(-c2ncccn2)nc(OCCOc2ncc(OC)cn2)c1Oc1ccccc1OC: 6.16
- CCS(=O)(=O)Nc1ncnc(OCCOc2ncc(Br)cn2)c1Oc1ccccc1OC: 6.20
- CSc1cnc(OCCOc2ncnc(NS(C)(=O)=O)c2-c2ccc(Br)cc2)nc1: 6.34
- CCCCS(=O)(=O)Nc1ncnc(OCCOc2ncc(SC)cn2)c1-c1ccc(Br)cc1: 6.19
- CS(=O)(=O)Nc1ncnc(OCCOc2ncc(S(C)(=O)=O)cn2)c1-c1ccc(Br)cc1: 6.44
- CCCS(=O)(=O)Nc1nc(-c2ncccn2)nc(OCCOc2ncc(SC)cn2)c1Oc1ccccc1OC: 6.73
- CCCCS(=O)(=O)Nc1ncnc(OCCOc2ncc(OC)cn2)c1Oc1cccc(OC)c1: 6.40
- CCS(=O)(=O)Nc1nc(-c2ncccn2)nc(OCCOc2ncc(OC)cn2)c1Oc1ccccc1OC: 6.33
- CCS(=O)(=O)Nc1ncnc(OCCOc2ncc(SC)cn2)c1-c1ccc(Cl)cc1: 6.25
- CCCCS(=O)(=O)Nc1ncnc(OCCOc2ncc(S(C)(=O)=O)cn2)c1-c1ccc(Br)cc1: 6.93
- CCCCS(=O)(=O)Nc1nc(-c2ncccn2)nc(OCCOc2ncc(OC)cn2)c1Oc1ccccc1OC: 6.06
- CCS(=O)(=O)Nc1ncnc(OCCOc2ncc(Br)cn2)c1-c1ccc(Br)cc1: 6.08
- COc1cnc(OCCOc2nc(-c3ncccn3)nc(NS(C)(=O)=O)c2Oc2ccccc2OC)nc1: 6.14
- CCS(=O)(=O)Nc1ncnc(OCCOc2ncc(OC)cn2)c1Oc1ccccc1OC: 6.17
- CCS(=O)(=O)Nc1ncnc(OCCOc2ncc(S(C)(=O)=O)cn2)c1-c1ccc(Cl)cc1: 6.50
- COc1cnc(OCCOc2ncnc(NS(C)(=O)=O)c2Oc2ccccc2OC)nc1: 6.08
- CCCS(=O)(=O)Nc1ncnc(OCCOc2ncc(SC)cn2)c1Oc1ccccc1OC: 6.80

###

pIC50 values, listed per item
# system: human recombinant ETA receptors (Homo sapiens)
# Sequence (P25101 21-427): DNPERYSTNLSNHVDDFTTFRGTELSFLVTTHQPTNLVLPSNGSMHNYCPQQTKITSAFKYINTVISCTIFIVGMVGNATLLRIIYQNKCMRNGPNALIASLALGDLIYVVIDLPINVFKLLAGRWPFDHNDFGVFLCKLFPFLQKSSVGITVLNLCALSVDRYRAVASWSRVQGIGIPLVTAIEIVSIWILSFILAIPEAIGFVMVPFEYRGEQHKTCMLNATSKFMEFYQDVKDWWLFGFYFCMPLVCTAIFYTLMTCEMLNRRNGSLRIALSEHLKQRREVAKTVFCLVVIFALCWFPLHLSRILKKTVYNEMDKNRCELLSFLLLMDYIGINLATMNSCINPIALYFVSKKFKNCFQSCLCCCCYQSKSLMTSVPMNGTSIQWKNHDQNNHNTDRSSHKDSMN
# test name: Inhibition of [125I]ET-1 binding to membranes from CHO cells carrying human ETA receptors; further: 2.5% DMSO
pIC50: −log10 of the molar value.
quantity name: pIC50

- CCS(=O)(=O)Nc1ncnc(OCCOc2ncc(Br)cn2)c1-c1ccc(Cl)cc1: 8.82
- CCCCS(=O)(=O)Nc1ncnc(OCCOc2ncc(OC)cn2)c1-c1ccc(C)cc1: 8.46
- CCCS(=O)(=O)Nc1ncnc(OCCOc2ncc(S(C)(=O)=O)cn2)c1-c1ccc(Br)cc1: 9.23
- COc1ccccc1Oc1c(NS(C)(=O)=O)ncnc1OCCOc1ncc(S(C)(=O)=O)cn1: 7.09
- CCCS(=O)(=O)Nc1ncnc(OCCOc2ncc(Br)cn2)c1-c1ccc(Br)cc1: 9.34
- CCS(=O)(=O)Nc1ncnc(OCCOc2ncc(Br)cn2)c1-c1ccc(C)cc1: 8.40
- CCCCS(=O)(=O)Nc1nc(C2CC2)nc(OCCOc2ncc(S(C)(=O)=O)cn2)c1-c1ccc(C)cc1: 8.82
- CCCCS(=O)(=O)Nc1ncnc(OCCOc2ncc(OC)cn2)c1-c1ccc(Br)cc1: 8.90

###

# system: human recombinant ETB receptors (Homo sapiens)
# Sequence (P24530 27-442): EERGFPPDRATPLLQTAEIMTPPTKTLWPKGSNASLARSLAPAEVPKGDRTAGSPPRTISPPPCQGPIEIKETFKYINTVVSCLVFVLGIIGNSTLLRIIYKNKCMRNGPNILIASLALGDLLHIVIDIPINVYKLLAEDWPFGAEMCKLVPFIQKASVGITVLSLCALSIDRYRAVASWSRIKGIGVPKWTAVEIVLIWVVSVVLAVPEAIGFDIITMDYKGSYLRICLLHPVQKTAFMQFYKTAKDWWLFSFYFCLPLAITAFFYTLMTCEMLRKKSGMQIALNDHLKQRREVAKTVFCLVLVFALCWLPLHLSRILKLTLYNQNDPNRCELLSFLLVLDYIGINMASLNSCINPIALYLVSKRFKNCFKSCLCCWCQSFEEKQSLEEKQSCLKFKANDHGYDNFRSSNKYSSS
# test name: Inhibition of [125I]ET-1 binding to membranes from CHO cells carrying human ETB receptors; further: 2.5% DMSO
pIC50: −log10 of the molar value.
pIC50: recorded values
quantity name: pIC50

* CCS(=O)(=O)Nc1nc(C2CC2)nc(OCCOc2ncc(OC)cn2)c1-c1ccc(C)cc1 | < 6.00
* CCCS(=O)(=O)Nc1ncnc(OCCOc2ncc(OC)cn2)c1Oc1ccccc1OC | < 6.00
* COc1cnc(OCCOc2ncnc(NS(C)(=O)=O)c2-c2ccc(Br)cc2)nc1 | < 6.00
* COc1cnc(OCCOc2ncnc(NS(C)(=O)=O)c2-c2ccc(C)cc2)nc1 | < 6.00
* Cc1ccc(-c2c(NS(C)(=O)=O)ncnc2OCCCOc2ncc(Br)cn2)cc1 | < 6.00
* CCCCS(=O)(=O)Nc1ncnc(OCCOc2ncc(S(C)(=O)=O)cn2)c1Oc1cccc(OC)c1 | 6.74
* CCS(=O)(=O)Nc1ncnc(OCCOc2ncc(SC)cn2)c1Oc1ccccc1OC | 6.98
* CCS(=O)(=O)Nc1ncnc(OCCOc2ncc(OC)cn2)c1-c1ccc(C)cc1 | < 6.00
* CSc1cnc(OCCOc2ncnc(NS(C)(=O)=O)c2-c2ccc(C)cc2)nc1 | < 6.00
* CCCCS(=O)(=O)Nc1ncnc(OCCOc2ncc(Br)cn2)c1Oc1cccc(OC)c1 | 6.23
* CCS(=O)(=O)Nc1ncnc(OCCOc2ncc(Br)cn2)c1-c1ccc(Cl)cc1 | < 6.00
* COc1ccccc1Oc1c(NS(C)(=O)=O)nc(-c2ncccn2)nc1OCCOc1ncc(SC)cn1 | 7.10
* CCS(=O)(=O)Nc1ncnc(OCCOc2ncc(SC)cn2)c1-c1ccc(Br)cc1 | 6.37
* CCCS(=O)(=O)Nc1ncnc(OCCOc2ncc(OC)cn2)c1-c1ccc(Br)cc1 | < 6.00
* CCS(=O)(=O)Nc1ncnc(OCCOc2ncc(Br)cn2)c1-c1ccc(C)cc1 | < 6.00
* CCCCS(=O)(=O)Nc1ncnc(OCCOc2ncc(Br)cn2)c1-c1ccc(C)cc1 | < 6.00
* CCS(=O)(=O)Nc1ncnc(OCCOc2ncc(S(C)(=O)=O)cn2)c1-c1ccc(Br)cc1 | 6.57
* CCCCS(=O)(=O)Nc1ncnc(OCCOc2ncc(OC)cn2)c1-c1ccc(C)cc1 | < 6.00
* CCS(=O)(=O)Nc1nc(C2CC2)nc(OCCOc2ncc(S(C)(=O)=O)cn2)c1-c1ccc(C)cc1 | < 6.00
* CCCS(=O)(=O)Nc1ncnc(OCCOc2ncc(S(C)(=O)=O)cn2)c1Oc1ccccc1OC | < 6.00
* CCCS(=O)(=O)Nc1ncnc(OCCOc2ncc(Br)cn2)c1-c1ccc(C)cc1 | < 6.00
* CS(=O)(=O)Nc1ncnc(OCCOc2ncc(Br)cn2)c1-c1ccc(Br)cc1 | 6.08
* CCCCS(=O)(=O)Nc1nc(C2CC2)nc(OCCOc2ncc(SC)cn2)c1-c1ccc(C)cc1 | < 6.00
* CS(=O)(=O)Nc1ncnc(OCCOc2ncc(C3CC3)cn2)c1-c1ccc(Br)cc1 | < 6.00
* COc1ccccc1Oc1c(NS(C)(=O)=O)ncnc1OCCOc1ncc(Br)cn1 | 6.22
* CCCCS(=O)(=O)Nc1ncnc(OCCOc2ncc(SC)cn2)c1-c1ccc(C)cc1 | < 6.00
* CCS(=O)(=O)Nc1ncnc(OCCOc2ncc(SC)cn2)c1-c1ccc(C)cc1 | 6.00
* CCCS(=O)(=O)Nc1ncnc(OCCOc2ncc(SC)cn2)c1-c1ccc(Br)cc1 | 6.03
* CCS(=O)(=O)Nc1nc(-c2ncccn2)nc(OCCOc2ncc(SC)cn2)c1Oc1ccccc1OC | 7.23
* COc1ccccc1Oc1c(NS(C)(=O)=O)ncnc1OCCOc1ncc(S(C)(=O)=O)cn1 | < 6.00
* CCCS(=O)(=O)Nc1ncnc(OCCOc2ncc(SC)cn2)c1-c1ccc(C)cc1 | < 6.00
* CCCCS(=O)(=O)Nc1ncnc(OCCOc2ncc(SC)cn2)c1Oc1cccc(OC)c1 | 6.95
* CCS(=O)(=O)Nc1ncnc(OCCOc2ncc(OC)cn2)c1-c1ccc(Cl)cc1 | < 6.00
